target: UniProt:O75914
Sequence (O75914 whole entry): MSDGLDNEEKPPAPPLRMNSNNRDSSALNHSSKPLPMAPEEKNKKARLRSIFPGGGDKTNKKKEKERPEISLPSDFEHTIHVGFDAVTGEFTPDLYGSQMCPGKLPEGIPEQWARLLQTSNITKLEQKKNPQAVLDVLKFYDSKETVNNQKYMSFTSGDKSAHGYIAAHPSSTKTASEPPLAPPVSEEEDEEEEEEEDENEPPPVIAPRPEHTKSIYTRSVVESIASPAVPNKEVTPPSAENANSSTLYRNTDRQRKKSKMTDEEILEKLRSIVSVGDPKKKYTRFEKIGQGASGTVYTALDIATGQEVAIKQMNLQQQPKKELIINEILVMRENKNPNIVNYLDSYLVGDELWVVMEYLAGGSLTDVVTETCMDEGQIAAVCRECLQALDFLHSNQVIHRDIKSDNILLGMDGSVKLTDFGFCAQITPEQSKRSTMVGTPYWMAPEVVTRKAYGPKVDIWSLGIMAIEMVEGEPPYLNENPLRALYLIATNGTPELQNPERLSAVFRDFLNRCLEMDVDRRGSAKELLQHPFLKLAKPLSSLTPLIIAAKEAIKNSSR
Property Measured: IC50

// each molecule listed below needs its IC50
1. CCn1c(=O)c(-c2ccc(-c3cnc(C)s3)cc2Cl)cc2cnc(Nc3ccc(N4CCN(C)CC4)cc3)nc21
2. CC(=O)Nc1ncccc1-c1ccc(Cl)c(-c2cc3cnc(Nc4ccc(C5CCN(C)CC5)cc4)nc3n(C)c2=O)c1
3. CCn1c(=O)c(-c2ccc(-c3cnc(C)s3)cn2)cc2cnc(Nc3ccc(C4CCN(C)CC4)cc3)nc21
4. CCn1c(=O)c(-c2ccc(-c3cccnc3C)cc2Cl)cc2cnc(Nc3ccc(C4CCN(C(C)C)CC4)cc3)nc21
5. CCn1c(=O)c(-c2ccc(-c3cccnc3F)cc2Cl)cc2cnc(Nc3ccc(CCN(C)C)cc3)nc21
6. CCn1c(=O)c(-c2ccc(-c3cc(NC4CC4)ncn3)cc2Cl)cc2cnc(Nc3ccc(C4CCN(C)CC4)cc3)nc21
7. CCn1c(=O)c(-c2ccc(-c3cccs3)s2)cc2cnc(Nc3ccc(N4CCN(C)CC4)cc3)nc21

["< 50 nM", "500 to 5000 nM", "> 5000 nM", "50 to 500 nM", "< 50 nM", "50 to 500 nM", "> 5000 nM"]

Hi there! I need IC50 for each item below, if you can.
1. CCn1c(=O)c(-c2ccc(-c3cccnc3)cc2Cl)cc2cnc(Nc3ccc(C4CCNC4)cc3)nc21 (centres unmarked)
2. CCn1c(=O)c(-c2ccc(-c3cncs3)cc2Cl)cc2cnc(Nc3ccc(N4CCN(C(C)C)CC4)c(F)c3)nc21
3. Cc1nccnc1-c1ccc(-c2cc3cnc(Nc4ccc(C5CCN(C)CC5)cc4)nc3n(C)c2=O)c(Cl)c1
4. CCn1c(=O)c(-c2ccc(-c3cccnc3C)cn2)cc2cnc(Nc3ccc(C4CCN(C)CC4)cc3)nc21
5. CCn1c(=O)c(-c2ccc(-c3noc(C)n3)cc2)cc2cnc(Nc3ccc(N4CCN(C)CC4)cc3)nc21
6. CCn1c(=O)c(-c2ccc(-c3scnc3C)cc2Cl)cc2cnc(Nc3ccc(N4CCNCC4)cc3)nc21
7. CCn1c(=O)c(-c2ccc(-c3cc(C)ncn3)cc2Cl)cc2cnc(Nc3ccc(C4CCN(C)CC4)cc3)nc21

< 50 nM
< 50 nM
< 50 nM
> 5000 nM
50 to 500 nM
< 50 nM
50 to 500 nM
